Consider the following compounds; for each one, report its GI50.
# Tested on: SF-295
# test-method-notes: NCI tumour cell line growth inhibition, 48 h
Active and inactive are the calls of the source. Cut-off read from the data, not from the text of the source: active = GI50 up to about 1.1 µM and inactive = higher.

// field: GI50; key: COc1cc2nc(Nc3cccc(Br)c3)nc(Nc3cccc(Br)c3)c2cc1OC ; value = 17.7 µM (inactive)

// field: GI50; key: O=C(c1ccccc1)[C@H]1Nc2cnccc2C2c3ccccc3CC21 (stereo not given in full) ; value = 18.2 µM (inactive)

// field: GI50; key: C=C(C)C1CC=C(C)C(=O)C1 (stereo not given) [CARVONE] ; value = > 100 µM (inactive)

// field: GI50; key: COc1cc(/C=C2/SC(c3ccccc3)N(c3cccc(Cl)c3)C2=O)cc(OC)c1OC (stereo not given) ; value = 8.22 µM (inactive)

// field: GI50; key: COc1ccc(C2Oc3cc(OC)c(O)cc3[C@@H]2C)cc1 (stereo not given in full) ; value = > 100 µM (inactive)

// field: GI50; key: O=c1[nH]n(Cc2ccccc2)c2ccc([N+](=O)[O-])cc12 ; value = 66.8 µM (inactive)

// field: GI50; key: COc1ccc(/N=C2/SC(=N/N=c3\sc4ccccc4n3C)S/C2=N/c2ccc(OC)cc2)cc1 ; value = 51.8 µM (inactive)

// field: GI50; key: O=C(/C=C/c1ccc2c(c1)OCO2)Cc1nc2ncccc2[nH]c1=O ; value = 69.3 µM (inactive)

// field: GI50; key: CCCCOC(=O)C(=O)C(CC(CC)C(=O)c1ccccc1)C(=O)C=C(C)C (stereo not given) ; value = > 100 µM (inactive)

// field: GI50; key: CCOC(=O)C(/C(=N\NC(=O)OC)C(=O)Nc1cc(OC)ccc1OC)c1cnc2ccccc2n1 (stereo not given) ; value = > 100 µM (inactive)

---

Consider the following molecules; for each one, report its GI50.
# System: IGROV-1
# test-method-notes: NCI tumour cell line growth inhibition, 48 h
Active and inactive are the calls of the source. No stated cut-off is given here; in the data, active = GI50 up to about 1.1 µM and inactive = higher.

// field: GI50; key: Cc1ccc(OCC2OC(C#N)C(Oc3ccc(C)cc3)C2Oc2ccc(C)cc2)cc1 (stereo not given) ; value = > 100 µM (inactive)

// field: GI50; key: CN(C)CCNC(=O)c1cccc(N(C)C(=O)c2ccccc2)c1[N+](=O)[O-] ; value = > 100 µM (inactive)

// field: GI50; key: COC(=O)N/N=C/c1oc(-c2cccc([N+](=O)[O-])c2)c(-c2cccc([N+](=O)[O-])c2)c1[N+](=O)[O-] ; value = > 100 µM (inactive)

// field: GI50; key: CN1CCN(c2ccc3[nH]c(-c4ccc5[nH]c(-c6ccc(O)cc6)nc5c4)nc3c2)CC1 ; value = 117 µM (inactive)

// field: GI50; key: O=S(=O)(NNc1ccccc1)c1ccccc1 ; value = 10.2 µM (inactive)

---

# System: COLO 205
# test-method-notes: NCI tumour cell line growth inhibition, 48 h
The source made the active and inactive calls. Cut-off read from the data, not from the text of the source: active = GI50 up to about 1.1 µM and inactive = higher.
Consider the following compounds; for each one, report its GI50.

// field: GI50; key: CCOC(=O)C(/C(=N\NC(=O)OC)C(=O)Nc1cc(OC)ccc1OC)c1cnc2ccccc2n1 (configuration not stated) ; value = > 100 µM (inactive)

// field: GI50; key: O=C1Nc2ccccc2/C1=C1/Nc2ccccc2/C1=N\OCCNCC(O)C(O)C(O)C(O)CO (configuration not stated) ; value = 12.1 µM (inactive)

// field: GI50; key: CC1OC2/C=C\CC(O)C(C)(C)C3CCC(C)C4(O3)O[B-]35OC(C(=O)OC1C2)C1(OC(CCC1C)C(C)(C)C(O)C/C=C\C1CC(OC(=O)C4O3)C(C)O1)O5 (configuration not stated) ; value = 2.03 µM (inactive)

// field: GI50; key: Brc1ccc2c3c1[C@@H]1O[C@@H]1c1cccc(c1-3)[C@@H]1O[C@H]21 ; value = 21.8 µM (inactive)

// field: GI50; key: C=C(C)C1CC=C(C)C(=O)C1 (configuration not stated) ; value = > 100 µM (inactive)

// field: GI50; key: COc1ccc(S(=O)(=O)N/N=C/C(=O)O)cc1 ; value = 1010 µM (inactive)

// field: GI50; key: CN1N=C(c2ccncc2)OC1c1ccc(C(F)(F)F)cc1 (configuration not stated) ; value = > 100 µM (inactive)

// field: GI50; key: CCOC(=O)CC(=O)ON(C)C(=O)Cc1ccccc1 ; value = > 100 µM (inactive)

// field: GI50; key: [N-]=[N+]=NC1(c2ccccc2)C(=O)c2cccc3c2N(CCC3)C1=O (configuration not stated) ; value = 88.3 µM (inactive)

// field: GI50; key: COC(=O)CSC1CC(=O)c2c(Cl)sc(Cl)c21 (configuration not stated) ; value = > 100 µM (inactive)

// field: GI50; key: COC(=O)C1Cc2ccc(C)cc2C1=O (configuration not stated) ; value = > 100 µM (inactive)

// field: GI50; key: COC(COC(=O)N1CCN(C=O)CC1)C1=C(N2CC2)C(=O)C(C)=C(N2CC2)C1=O (configuration not stated) ; value = 0.272 µM (active)

// field: GI50; key: COc1cc(C2C3=C(CCC3=O)Oc3cc4c(cc32)OCO4)cc(OC)c1OC (configuration not stated) ; value = 0.336 µM (active)

// field: GI50; key: O=C(/C=C/c1ccccc1O)C(c1ccccc1)c1ccccc1 ; value = 39.3 µM (inactive)

// field: GI50; key: S=C(Nc1cc(Cl)c(Cl)cc1Cl)SCc1ccccc1 ; value = 34.9 µM (inactive)

// field: GI50; key: CS(=O)(=O)C1S(=O)(=O)OCCOS1(=O)=O ; value = > 100 µM (inactive)

// field: GI50; key: Cc1cc(C)c2c(n1)S(=O)(=O)N(CCCN1CCN(c3cccc(C(F)(F)F)c3)CC1)C(C(=O)c1ccc(Cl)cc1)=C2O ; value = 1.84 µM (inactive)

// field: GI50; key: CCOC(=O)Cc1csc2[n+]1C(=O)/C(=C\c1cccc(Cl)c1Cl)S2 ; value = 1.7 µM (inactive)

// field: GI50; key: CN1C(c2ccccc2)CC(C)(O)CC1c1ccccc1 (configuration not stated) ; value = > 100 µM (inactive)

// field: GI50; key: COc1ccc(-n2/c(=N/C(=S)N(C)C)ss/c2=N\C(=S)N(C)C)cc1 ; value = 48 µM (inactive)

// field: GI50; key: CC(=O)n1cc(CC(C)O)c(=O)[nH]c1=O (configuration not stated) ; value = > 100 µM (inactive)

// field: GI50; key: COc1ccc2c3ccc4c(c3n(C)c2c1)C(=O)C=CC4=O ; value = 18.8 µM (inactive)

// field: GI50; key: CSc1ccc(-c2cc(-c3nc4ccccc4[nH]3)nc3[nH]c(-c4nc5ccccc5[nH]4)cc(=O)c23)cc1 ; value = 37.8 µM (inactive)

// field: GI50; key: [N-]=[N+]=C(C(=O)N1CCCC1=O)S(=O)(=O)c1ccccc1 ; value = > 100 µM (inactive)

// field: GI50; key: O=[N+]([O-])c1cccc(-c2oc(/C=N/c3ccccc3)c([N+](=O)[O-])c2-c2cccc([N+](=O)[O-])c2)c1 ; value = > 100 µM (inactive)

// field: GI50; key: C=CCSc1nn(CC=C)cc2ncnc1-2 ; value = > 100 µM (inactive)

// field: GI50; key: Cc1ccc(S(=O)(=O)n2cc(-c3cc(C(F)(F)F)ccn3)c3cc(Br)ccc32)cc1 ; value = 59.2 µM (inactive)

// field: GI50; key: CNC(=O)OCc1nc(SC)n(C)c1COC(=O)NC ; value = 146 µM (inactive)

// field: GI50; key: C#CCn1c(=O)[nH]c(=O)c2cccnc21 ; value = > 100 µM (inactive)

// field: GI50; key: O=C1CCC2(CC1)Cc1ccccc1C2O (configuration not stated) ; value = > 100 µM (inactive)

// field: GI50; key: C[C@@H](c1ccccc1)N1CO[C@@]2(C#Cc3ccc4c(c3)OCO4)CCC[C@@H]12 ; value = 15.8 µM (inactive)

// field: GI50; key: O=S(=O)(N/C(=N\O)Nc1ccc(Cl)cc1)c1cc(S(=O)(=O)c2ccccc2)cs1 ; value = 18.7 µM (inactive)

// field: GI50; key: CCCCC(C#N)(OP1(=O)OC(c2ccccc2)C(C)N1C)c1ccccc1 (configuration not stated) ; value = 17.8 µM (inactive)

// field: GI50; key: Cc1ccc(-n2c(=O)c3nn4c(=O)n(-c5ccc(C)cc5)c(=O)c4nn3c2=O)cc1 ; value = > 100 µM (inactive)

// field: GI50; key: CN(C)c1ncnc2c1ncn2CCn1cnc2c(N(C)C)ncnc21 ; value = > 100 µM (inactive)

// field: GI50; key: Nc1ccc2c(c1)S(=O)(=O)c1cc(O)ccc1O2 ; value = > 100 µM (inactive)

// field: GI50; key: COC(=O)c1csc([C@@H](OC(=O)[C@H](C)[C@H](CCCC(C)(Cl)Cl)OC(=O)c2csc([C@H](O)CO)n2)C(C)C)n1 ; value = 17.8 µM (inactive)

// field: GI50; key: COc1ccccc1C1c2cc3c(cc2OC2(OC)COC(=O)C12)OCO3 (configuration not stated) ; value = 6.56 µM (inactive)

// field: GI50; key: CS/C(=N\c1ccccc1)N(c1ccccc1)c1nc(=[N+](C)C)ss1.[O-][Cl+3]([O-])([O-])[O-] ; value = 0.0647 µM (active)

// field: GI50; key: CC(C)(C)[Si](C)(C)OCC1OC(n2cnc3c(N)ncnc32)C2OC(=S)OC12 (configuration not stated) ; value = 35.6 µM (inactive)

// field: GI50; key: CCCCCCCCCOC(=S)NC ; value = 22.8 µM (inactive)

// field: GI50; key: COc1cccc2c1-c1ccccc1[C@H](Nc1ccccc1)[C@@]2(C)O ; value = 3.1 µM (inactive)
